Entry source: patent US10385024B2

Concentration in Bile values for the molecules below.
- assayNotes: Pharmacokinetic evaluation in bile
- Format: in vivo, Sprague-Dawley rats
- experimentalConditions: bile duct cannulated rats, oral gavage, nominal dose 30 mg/kg, bile collected over 24 h, mean of n=3
observedProperty: Concentration in Bile

| molecule | measurement |
| --- | --- |
| CN1Cc2c(Cl)cc(Cl)cc2[C@H](c2cccc(S(=O)(=O)NCCOCCOCCNC(=O)CCC(CCC(=O)NCCOCCOCCNS(=O)(=O)c3cccc([C@@H]4CN(C)Cc5c(Cl)cc(Cl)cc54)c3)(CCC(=O)NCCOCCOCCNS(=O)(=O)c3cccc([C@@H]4CN(C)Cc5c(Cl)cc(Cl)cc54)c3)NC(=O)NCCS(=O)(=O)O)c2)C1 [Example 3] | 10 nM |
| CN1Cc2c(Cl)cc(Cl)cc2[C@H](c2cccc(S(=O)(=O)NCCOCCOCCNC(=O)CCC(N)(CCC(=O)NCCOCCOCCNS(=O)(=O)c3cccc([C@@H]4CN(C)Cc5c(Cl)cc(Cl)cc54)c3)CCC(=O)NCCOCCOCCNS(=O)(=O)c3cccc([C@@H]4CN(C)Cc5c(Cl)cc(Cl)cc54)c3)c2)C1 [Example 2] | 4 nM |
| CN1Cc2c(Cl)cc(Cl)cc2[C@H](c2cccc(S(=O)(=O)NCCOCCOCCNC(=O)CCC(CCC(=O)NCCOCCOCCNS(=O)(=O)c3cccc([C@@H]4CN(C)Cc5c(Cl)cc(Cl)cc54)c3)(CCC(=O)NCCOCCOCCNS(=O)(=O)c3cccc([C@@H]4CN(C)Cc5c(Cl)cc(Cl)cc54)c3)NC(=O)NCC(=O)O)c2)C1 [Example 7] | 19 nM |
| CN1Cc2c(Cl)cc(Cl)cc2[C@H](c2cccc(S(=O)(=O)NCCOCCOCCNC(=O)CCC(CCC(=O)NCCOCCOCCNS(=O)(=O)c3cccc([C@@H]4CN(C)Cc5c(Cl)cc(Cl)cc54)c3)(CCC(=O)NCCOCCOCCNS(=O)(=O)c3cccc([C@@H]4CN(C)Cc5c(Cl)cc(Cl)cc54)c3)NC(=O)CCCC(=O)O)c2)C1 [Example 36] | 17 nM |
| CN1Cc2c(Cl)cc(Cl)cc2[C@H](c2cccc(S(=O)(=O)NCCOCCOCCNC(=O)CCC(CCC(=O)NCCOCCOCCNS(=O)(=O)c3cccc([C@@H]4CN(C)Cc5c(Cl)cc(Cl)cc54)c3)(CCC(=O)NCCOCCOCCNS(=O)(=O)c3cccc([C@@H]4CN(C)Cc5c(Cl)cc(Cl)cc54)c3)NC(=O)CCC(=O)O)c2)C1 [Example 40] | 23 nM |
